- Read-out: Monocyte Chemoattractant Protein-1 (MCP1), CCL2 (gene 6347)
- Assay Overview: BSK_LPS_MCP1: BioMAP Diversity Plus: LPS Assay for Monocyte Chemoattractant Protein-1 (MCP1) Biomarker Activity (AID 2283081)
- Conditions: primary human HUVEC with PBMC; actives raise or lower the signal
The source made the active and inactive calls. The calls were made as follows: active = hit-call score of the fitted dose curve at least 0.9, where 1 is the maximum; inactive = score below 0.9.
Return exactly one item of active, inactive

Record excerpt, results attached:
- Molecule: "O=C(NO)c1ccccc1"
  Answer Label: "inactive"
- Molecule: "NC(=NCCCCCCN=C(N)/N=C(\\N)Nc1ccc(Cl)cc1)/N=C(\\N)Nc1ccc(Cl)cc1"
  Answer Label: "active"
- Molecule: "CN(CCO)S(=O)(=O)C(F)(F)C(F)(F)C(F)(F)C(F)(F)C(F)(F)C(F)(F)C(F)(F)C(F)(F)F"
  Answer Label: "inactive"
- Molecule: "C=CC(C)(CCC=C(C)C)OC(C)=O (stereo unspecified)"
  Answer Label: "inactive"
- Molecule: "Oc1ccc(Cc2ccccc2O)cc1"
  Answer Label: "inactive"

Let's switch to this molecule now.
Outcome? O=P(O)(O)CCC(F)(F)C(F)(F)C(F)(F)C(F)(F)C(F)(F)C(F)(F)C(F)(F)C(F)(F)F
inactive

----------
- Read-out: Human Leukocyte Antigen - DR isotype (HLADR), HLA-DRA (gene 3122)
- Assay Overview: BSK_CASM3C_HLADR: BioMAP Diversity Plus: CASM3C Assay for Human Leukocyte Antigen - DR isotype (HLADR) Biomarker Activity (AID 2283043);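 also: cell-surface HLA-DR protein level quantified by ELISA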
- Conditions: primary human coronary artery smooth muscle cells; actives raise or lower the signal
The source made the active and inactive calls. The calls were made as follows: active = hit-call score of the fitted dose curve at least 0.9, where 1 is the maximum; inactive = score below 0.9.
Return exactly one item of T for active, F for inactive

- Compound: "C=CC(C)(CCC=C(C)C)OC(C)=O (stereo not drawn)"
  Answer Label: "T"

Outcome? CCCCCCCCCCCC
F

Outcome? CCCCC(CC)C(=O)OCCOCCOCCOCCOC(=O)C(CC)CCCC (stereo not drawn)
F

----------
- Assay Overview: ATG_CMV_CIS: Attagene CIS-FACTORIAL HepG2 Assay for human CMV (Internal Marker) (AID 2282928);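 also: endpoint acts as a background internal control marker rather than a target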
- Conditions: HepG2 CMV promoter reporter, transcription factor profiling; actives raise or lower the signal
The source made the active and inactive calls. The calls were made as follows: active = hit-call score of the fitted dose curve at least 0.9, where 1 is the maximum; inactive = score below 0.9.
Return exactly one item of class 1 for active, class 0 for inactive

Record excerpt, results attached:
- Compound: "CCc1cccc(CC)c1N(COC)C(=O)CS(=O)(=O)O"
  Answer Label: "class 0"
- Compound: "COC(O)c1ccccc1 (centres undefined)"
  Answer Label: "class 0"
- Compound: "CC(O)COc1ccccc1 (centres undefined)"
  Answer Label: "class 0"
- Compound: "COc1cc(OC)nc(NC(=O)NS(=O)(=O)Nc2ccccc2C(=O)N(C)C)n1"
  Answer Label: "class 0"
- Compound: "O=C1c2ccccc2C(=O)c2c(O)c(O)cc(O)c21"
  Answer Label: "class 1"

Outcome? CCCC=O
class 0

Outcome? CCOC(=O)CN[C@@H](C(=O)N1CC[C@H]1C(=O)NCc1ccc(/C(N)=N/O)cc1)C1CCCCC1
class 0

Outcome? CCOCCOCC
class 0

Outcome? CCCCCCCCCCCCCCCCCC[N+](C)(C)Cc1ccccc1
class 0

Outcome? CS(=O)(=O)c1ccc([C@@H](CC2CCCC2)C(=O)Nc2cnccn2)cc1Cl
class 1

Outcome? CC(C)(c1ccc(Oc2ccc(N)cc2)cc1)c1ccc(Oc2ccc(N)cc2)cc1
class 0

Outcome? CCCCN(C)C
class 0

Outcome? Cc1ccccc1OCC(=O)O
class 0

Outcome? CC(C)CCOCCC(C)C
class 0

----------
- System Under Test: Glucocorticoid receptor (Homo sapiens) (UniProt P04150)
- Sequence (P04150 whole entry, looked up): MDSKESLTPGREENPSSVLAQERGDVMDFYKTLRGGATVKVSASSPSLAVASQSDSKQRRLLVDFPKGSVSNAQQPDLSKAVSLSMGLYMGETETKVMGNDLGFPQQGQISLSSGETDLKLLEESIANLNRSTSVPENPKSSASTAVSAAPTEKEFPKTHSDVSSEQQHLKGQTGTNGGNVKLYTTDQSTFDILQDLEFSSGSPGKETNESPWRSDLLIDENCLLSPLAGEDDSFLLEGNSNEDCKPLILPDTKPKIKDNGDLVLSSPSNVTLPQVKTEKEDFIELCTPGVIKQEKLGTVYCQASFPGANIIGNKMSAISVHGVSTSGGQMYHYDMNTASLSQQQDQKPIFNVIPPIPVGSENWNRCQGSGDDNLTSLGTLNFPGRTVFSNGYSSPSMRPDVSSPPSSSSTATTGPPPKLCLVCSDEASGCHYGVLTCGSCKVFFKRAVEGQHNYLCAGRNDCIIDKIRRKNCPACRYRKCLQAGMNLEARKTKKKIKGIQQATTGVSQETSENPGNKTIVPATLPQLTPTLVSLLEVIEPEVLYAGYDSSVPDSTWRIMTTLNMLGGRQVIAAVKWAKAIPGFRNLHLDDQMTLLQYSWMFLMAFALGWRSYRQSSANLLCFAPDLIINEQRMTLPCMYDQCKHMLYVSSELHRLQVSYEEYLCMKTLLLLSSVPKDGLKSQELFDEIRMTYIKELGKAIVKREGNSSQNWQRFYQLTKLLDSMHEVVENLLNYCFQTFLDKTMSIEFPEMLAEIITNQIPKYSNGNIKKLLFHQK
- Assay Overview: ATG_GR_TRANS: Attagene TRANS-FACTORIAL HepG2 Assay for human Glucocorticoid Receptor (GR) (AID 2282978);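 also: activators score as hits since higher reporter transcript over DMSO is fitted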
- Conditions: HepG2 Attagene TRANS GR reporter, mRNA transcription
Inconclusive results are not listed. Active and inactive are the calls of the source. How the source made its calls: active means hit-call score of the fitted dose curve at least 0.9, where 1 is the maximum; inconclusive means response in the unintended direction; inactive means score below 0.9.

- Compound: "CS(=O)(=O)c1ccc([C@@H](CC2CCCC2)C(=O)Nc2cnccn2)cc1Cl"
  outcome: "inactive"
- Compound: "CC1CNCC(C)O1 (stereo not drawn)"
  outcome: "inactive"
- Compound: "CCCC=O"
  outcome: "inactive"

----------
- Read-out: Tissue Factor, F3 (gene 2152)
- Assay Overview: BSK_CASM3C_TissueFactor: BioMAP Diversity Plus: CASM3C Assay for Tissue Factor Biomarker Activity (AID 2283052);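 also: cell surface tissue factor protein level read by ELISA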
- Conditions: primary human coronary artery smooth muscle cells; actives raise or lower the signal
Active and inactive are the calls of the source. How the source made its calls: active means hit-call score of the fitted dose curve at least 0.9, where 1 is the maximum; inactive means score below 0.9.
Return exactly one item of 1 (yes) for active, 0 (no) for inactive

Record excerpt, results attached:
- Molecule: "CC1=NN(c2ccccc2)C(=O)C1"
  Answer Label: "0 (no)"
- Molecule: "CCCCCc1ccc(O)cc1"
  Answer Label: "1 (yes)"
- Molecule: "CCCCCCCCCCCCCCCCCC[N+](C)(C)Cc1ccccc1"
  Answer Label: "1 (yes)"

Outcome? N=C(N)c1ccc(OCCCCCOc2ccc(C(=N)N)cc2)cc1
0 (no)

Outcome? CC(=O)Nc1ccc(O)cc1
0 (no)

Outcome? CCCCC(CC)C(=O)OCCOCCOCCOCCOC(=O)C(CC)CCCC (stereo not given)
0 (no)

----------
- System Under Test: Hypoxia-inducible factor 1-alpha (Homo sapiens) (UniProt Q16665)
- Sequence (Q16665 whole entry, looked up): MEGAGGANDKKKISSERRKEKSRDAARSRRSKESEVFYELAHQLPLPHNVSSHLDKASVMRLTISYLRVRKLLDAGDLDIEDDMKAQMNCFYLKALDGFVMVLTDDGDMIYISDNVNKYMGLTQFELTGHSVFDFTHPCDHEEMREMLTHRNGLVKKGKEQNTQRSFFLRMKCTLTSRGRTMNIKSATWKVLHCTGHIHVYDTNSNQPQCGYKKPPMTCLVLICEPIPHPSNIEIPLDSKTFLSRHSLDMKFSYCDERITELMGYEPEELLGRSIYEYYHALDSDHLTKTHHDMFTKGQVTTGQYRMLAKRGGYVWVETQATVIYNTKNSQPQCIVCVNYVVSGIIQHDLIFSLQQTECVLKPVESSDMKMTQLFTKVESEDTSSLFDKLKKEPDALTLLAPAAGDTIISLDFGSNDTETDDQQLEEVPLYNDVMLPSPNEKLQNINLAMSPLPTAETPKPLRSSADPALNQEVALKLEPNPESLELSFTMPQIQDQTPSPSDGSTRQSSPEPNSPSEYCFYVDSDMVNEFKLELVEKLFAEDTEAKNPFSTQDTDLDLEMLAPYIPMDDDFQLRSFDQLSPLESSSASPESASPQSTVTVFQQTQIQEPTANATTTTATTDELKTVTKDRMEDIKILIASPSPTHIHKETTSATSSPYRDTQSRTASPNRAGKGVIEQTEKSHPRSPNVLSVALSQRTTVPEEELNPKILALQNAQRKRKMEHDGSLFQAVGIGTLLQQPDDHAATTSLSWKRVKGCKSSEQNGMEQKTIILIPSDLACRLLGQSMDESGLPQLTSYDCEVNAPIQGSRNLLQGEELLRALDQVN
- Assay Overview: ATG_HIF1a_CIS: Attagene CIS-FACTORIAL HepG2 Assay for human Hypoxia Inducible Factor 1 (HIF1A) (AID 2282951)
- Conditions: HepG2 Attagene cis-factorial HIF1a reporter transcription; actives raise or lower the signal
Active and inactive are the calls of the source. How the source made its calls: active means hit-call score of the fitted dose curve at least 0.9, where 1 is the maximum; inactive means score below 0.9.
Return exactly one item of active, inactive

Record excerpt, results attached:
- Molecule: "O=C(O)c1cccc(C(=O)O)n1"
  System Under Test: "Hypoxia-inducible factor 1-alpha (Homo sapiens) (UniProt Q16665)"
  Answer Label: "inactive"
- Molecule: "CCCCCCc1ccc(N)cc1"
  System Under Test: "Hypoxia-inducible factor 1-alpha (Homo sapiens) (UniProt Q16665)"
  Answer Label: "inactive"

Outcome? CCCCCCCCCCCC(=O)O
inactive

Outcome? CC(=O)CC(C)C
inactive

Outcome? CC(O)COc1ccccc1 (stereo not drawn)
inactive

Outcome? CS(=O)(=O)c1ccc([C@@H](CC2CCCC2)C(=O)Nc2cnccn2)cc1Cl
active

Outcome? CCCCCCCCCCCC[N+](C)(C)Cc1ccccc1
inactive

Outcome? COC(=O)CC(C(C)=O)C(=O)OC (stereo not drawn)
inactive

----------
- System Under Test: Estrogen receptor (Homo sapiens) (UniProt P03372)
- Sequence (P03372 whole entry, looked up): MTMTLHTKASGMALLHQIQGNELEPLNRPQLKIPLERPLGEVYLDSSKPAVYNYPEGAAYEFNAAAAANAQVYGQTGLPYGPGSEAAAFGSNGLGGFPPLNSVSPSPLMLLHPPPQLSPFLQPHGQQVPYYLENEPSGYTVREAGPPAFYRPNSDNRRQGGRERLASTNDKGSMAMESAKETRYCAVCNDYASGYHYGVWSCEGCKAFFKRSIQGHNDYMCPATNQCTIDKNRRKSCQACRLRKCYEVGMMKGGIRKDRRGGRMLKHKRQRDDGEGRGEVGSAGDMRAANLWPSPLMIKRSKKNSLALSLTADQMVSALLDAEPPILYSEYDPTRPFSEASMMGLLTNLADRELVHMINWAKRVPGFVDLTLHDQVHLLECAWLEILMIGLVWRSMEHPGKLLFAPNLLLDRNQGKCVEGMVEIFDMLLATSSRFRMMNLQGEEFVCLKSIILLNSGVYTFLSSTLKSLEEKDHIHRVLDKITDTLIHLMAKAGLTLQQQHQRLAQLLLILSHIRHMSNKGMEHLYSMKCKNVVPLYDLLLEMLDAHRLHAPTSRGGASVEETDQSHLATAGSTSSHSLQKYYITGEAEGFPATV
- Assay Overview: ATG_ERa_TRANS: Attagene TRANS-FACTORIAL HepG2 Assay for human Estrogen Receptor alpha (ERa) (AID 2282970)
- Conditions: HepG2 Attagene TRANS ERa GAL4 reporter, mRNA
Records with an inconclusive call do not appear. Activity calls are given as the source filed them. Rule for the calls: active = hit-call score of the fitted dose curve at least 0.9, where 1 is the maximum; inconclusive = response in the unintended direction; inactive = score below 0.9.
Return exactly one item of active, inactive

Record excerpt, results attached:
- Chemical String: "CN(CCO)S(=O)(=O)C(F)(F)C(F)(F)C(F)(F)C(F)(F)C(F)(F)C(F)(F)C(F)(F)C(F)(F)F"
  Answer Label: "inactive"
- Chemical String: "CCCCCCc1ccc(N)cc1"
  Answer Label: "active"
- Chemical String: "C[N+](C)(CCCNS(=O)(=O)CCC(F)(F)C(F)(F)C(F)(F)C(F)(F)C(F)(F)C(F)(F)F)CC(=O)[O-]"
  Answer Label: "active"
- Chemical String: "O=CC(F)(F)C(F)(F)C(F)(F)F"
  Answer Label: "inactive"
- Chemical String: "O=S(=O)(O)C(F)(F)C(F)(F)C(F)(F)C(F)(F)C(F)(F)C(F)(F)C(F)(F)C(F)(F)C(F)(F)C(F)(F)F"
  Answer Label: "inactive"

Outcome? COc1cc(OC)nc(NC(=O)NS(=O)(=O)Nc2ccccc2C(=O)N(C)C)n1
inactive

Outcome? O=C1Cc2ccccc2N1c1c(Cl)cccc1Cl
active

Outcome? CC(C)CCOCCC(C)C
inactive

Outcome? CCCCCCCCCCCCCCCCCC[N+](C)(C)Cc1ccccc1
inactive

Outcome? Cc1ccccc1OCC(=O)O
inactive

Outcome? C=COC(=O)C(C)(C)CCCCCC
active

----------
- Assay Overview: CCTE_Shafer_MEA_dev_network_spike_peak: CCTE's Neural Network Formation Assay for Mean Number of Electrodes in Network Spike, Shafer Lab (AID 2284049);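 as to AC50: fitted for loss of signal meaning fewer electrodes in network spikes than DMSO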
Active and inactive are the calls of the source. The calls were made as follows: active = hit-call score of the fitted dose curve at least 0.9, where 1 is the maximum; inactive = score below 0.9.
Measured Metric: AC50

- Chemical String: "O=C(C=C(O)C(F)(F)F)C(F)(F)F"
  Observed Value: "inactive"
- Chemical String: "O=C(O)C(F)(F)OC(F)(F)C(F)(F)OC(F)(F)C(F)(F)OC(F)(F)C(F)(F)C(F)(F)C(F)(F)F"
  Observed Value: "inactive"
- Chemical String: "O=P(O)(O)CCC(F)(F)C(F)(F)C(F)(F)C(F)(F)C(F)(F)C(F)(F)C(F)(F)C(F)(F)F"
  Observed Value: "4.22 µM (active)"
- Chemical String: "O=C(F)C(F)(F)C(F)(F)C(F)(F)C(F)F"
  Observed Value: "inactive"
